- system-name: recombinant human SOS1 polypeptide (amino acids 560-1049) (Homo sapiens, UniProt Q07889)
- Construct: corresponding to amino acids 560-1049, expressed in E. Coli; made in house; host or cells: E. coli
- Sequence (Q07889 560-1049): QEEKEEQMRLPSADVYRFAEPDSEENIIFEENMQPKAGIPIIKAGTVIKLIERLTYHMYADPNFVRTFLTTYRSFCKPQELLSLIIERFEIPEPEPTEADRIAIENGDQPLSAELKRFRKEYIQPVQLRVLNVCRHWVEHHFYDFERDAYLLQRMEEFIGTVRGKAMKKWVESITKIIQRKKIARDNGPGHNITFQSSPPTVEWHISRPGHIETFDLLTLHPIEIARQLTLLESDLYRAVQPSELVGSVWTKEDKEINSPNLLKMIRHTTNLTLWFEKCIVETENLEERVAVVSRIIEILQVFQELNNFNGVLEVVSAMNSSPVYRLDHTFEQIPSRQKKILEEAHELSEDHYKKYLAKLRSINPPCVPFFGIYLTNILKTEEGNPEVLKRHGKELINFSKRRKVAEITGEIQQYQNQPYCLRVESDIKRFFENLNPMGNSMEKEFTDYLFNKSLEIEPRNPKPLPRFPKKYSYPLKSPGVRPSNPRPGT
- assay: HTRF displacement assay: inhibition of labeled tracer binding to SOS1
- protocol-conditions: Table A, Morrison equation for competitive binding
Exercise: state measured log10 Ki for each of the compounds provided.
Plainly stated, the numbers are log10 of Ki given in nM.

Input: Field request: log10 Ki | item: Cc1c(C#N)cccc1[C@@H](C)Nc1nnc(C)c2cnc(N3C[C@@H]4[C@H]3CCN4C)cc12 (single isomer, unassigned) [Example 6-13]
Output: -0.21

Input: Field request: log10 Ki | item: `CCN1CC2(C1)CN(c1cc3c(N[C@H](C)c4cccc(C#N)c4C)nnc(C)c3cn1)C2`
Output: -0.42

Input: Field request: log10 Ki | item: `COCCN(C)c1cc2c(N[C@H](C)c3cccc(C#N)c3C)nnc(C)c2cn1`
Output: 0.78

Input: Field request: log10 Ki | item: Cc1c(C#N)cccc1[C@@H](C)Nc1nnc(C)c2cc(F)c(N3C[C@@H]4C[C@H]3CN4C)cc12 [Example 4-21]
Output: 0.30

Input: Field request: log10 Ki | item: `Cc1c(C#N)cccc1[C@@H](C)Nc1nnc(N2CC[C@@H](N)C2)c2cnc(N3C[C@H]4C[C@@H]3CO4)cc12`
Output: -0.30

Input: Field request: log10 Ki | item: `Cc1c(C#N)cccc1[C@@H](C)Nc1nnc(C)c2cc(Cl)c(N3CCN(C)CC3)cc12`
Output: 0.25

Kindly review the next compound as well.
Input: Field request: log10 Ki | item: `CCN1CCN(c2cc3c(N[C@H](C)c4cccc(C#N)c4C)nnc(C)c3cn2)CC1=O`
Output: 0.28
